- measurement_target: T1, human CXCR2 (human, UniProt P25025 1-360)
- T1 construct: also called CXC chemokine receptor 2; hCXCR2
- T1 sequence: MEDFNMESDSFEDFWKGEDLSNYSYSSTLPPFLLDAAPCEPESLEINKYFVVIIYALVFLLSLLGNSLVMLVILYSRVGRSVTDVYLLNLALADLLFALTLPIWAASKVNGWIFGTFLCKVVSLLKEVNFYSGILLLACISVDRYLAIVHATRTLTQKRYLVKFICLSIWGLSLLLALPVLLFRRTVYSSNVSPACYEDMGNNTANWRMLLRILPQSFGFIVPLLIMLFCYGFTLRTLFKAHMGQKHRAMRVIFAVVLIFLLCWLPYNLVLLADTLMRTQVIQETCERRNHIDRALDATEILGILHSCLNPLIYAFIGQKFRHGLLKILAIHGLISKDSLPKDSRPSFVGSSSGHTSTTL
- assay_summary: flow cytometry, CXCR2-transfected Expi293F cells
Measured EC50, listed per entry.
measured_property: EC50 (nM)

INSERT INTO assay_data (binder, measured_property, experimental_result) VALUES
  ('BKO-4A8 combinatorial variant 9b (antibody, human IgG4 S228P, lambda, V domains shown, IgG4 S228P, lambda) VH: EVQLLESGGGLVQPGGSLRLSCAASGFTFSSSTQSWVRQAPGKGLEWVSAISGRGRSTYYADSVKGRFTISRDNSKNTLYLQMNSLRAEDTAVYYCAIQKGYWGQGILVTVSS VL: QSALTQPPSASGSPGQSVTISCIGTSSDVGGYNYVSWYQQHPDKAPKLMIYEVSKRPSGVPDRFSGSKSGNTASLTVSGLQAEDEADYYCSSYAGSNNFGVFGGGTKLTVLG', 'EC50', 0.3),
  ('BKO-4A8 combinatorial variant 1c (antibody, human IgG4 S228P, lambda, V domains shown, IgG4 S228P, lambda) VH: EVQLLESGGGLVQPGGSLRLSCAASGFTFSSSTQSWVRQAPGKGLEWVSAISGRGRSTYYADSVKGRFTISRDNSRNTLYLQMNSLRAEDTAVYYCAIQMGYWGQGILVTVSS VL: QSALTQPPSASGSPGQSVTISCIGTSSDVGGYNYVSWYQQHPGKAPKLMIYEVSKRPSGVPDRFSGSKSGNTASLTVSGLQAEDEADYYCSSYAGSNNFGVFGGGTKLTVLG', 'EC50', 0.3),
  ('BKO-4A8 combinatorial variant 3c (antibody, human IgG4 S228P, lambda, V domains shown, IgG4 S228P, lambda) VH: EVQLLESGGGLVQPGGSLRLSCAASGFTFSSSTQSWVRQPPGKGLEWVSAISGRGRSTYYADSVKGRFTISRDNSKNTLYLQMNSLRAEDTAVYYCAIQMGYWGQGILVTVSS VL: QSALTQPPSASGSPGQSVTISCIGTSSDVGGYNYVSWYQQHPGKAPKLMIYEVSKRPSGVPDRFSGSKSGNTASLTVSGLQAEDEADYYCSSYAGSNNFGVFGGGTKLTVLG', 'EC50', 0.2);
